# reported IC50; entries follow
System tested: HDM2 (Homo sapiens, UniProt Q00987)
Construct: Thioredoxin (N); made in house; host or cells: E. coli strain BL21(DE3)Rosetta
Sequence (Q00987 17-125): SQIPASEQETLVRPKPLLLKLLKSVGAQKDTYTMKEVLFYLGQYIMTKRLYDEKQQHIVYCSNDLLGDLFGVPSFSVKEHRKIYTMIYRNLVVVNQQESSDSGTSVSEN
Method: HDM2 FRET assay (inhibition of binding of FITC labeled p53-pocket peptide to HDM2)
Condition details: Table 10; read-out: FRET IC50
Enter your answer as a number in nM; do not include the unit.

Before answering, review these 5 worked examples.
{"Molecule": "C[C@@H](Nc1nc(C(=O)O)nc2nc(COCc3ccccc3)n(Cc3ccc(C(F)(F)F)cc3)c12)C1CCC1 [Example 10.2]", "System tested": "HDM2 (Homo sapiens, UniProt Q00987)", "IC50 (nM)": 21.6}
{"Molecule": "CC(C)CN(C)C(C)c1nc2nc(C(=O)O)nc(N[C@H](C)C3CCC3)c2n1Cc1ccc(C(F)(F)F)cc1 (stereo partly shown) [Example 10.9]", "System tested": "HDM2 (Homo sapiens, UniProt Q00987)", "IC50 (nM)": 21.2}
{"Molecule": "C[C@@H](Nc1nc(C(=O)O)nc2nc(CN(C)C3CCCCC3)n(Cc3ccc(C(F)(F)F)cc3)c12)C1CCC1 [Example 10.14]", "System tested": "HDM2 (Homo sapiens, UniProt Q00987)", "IC50 (nM)": 4.53}
{"Molecule": "C[C@@H](Nc1nc(C(=O)O)nc2nc(C(=O)NCc3ccccc3)n(Cc3ccc(C(F)(F)F)cc3)c12)C1CCC1 [Example 10.18]", "System tested": "HDM2 (Homo sapiens, UniProt Q00987)", "IC50 (nM)": 58.9}
{"Molecule": "C[C@@H](Nc1nc(C(=O)O)nc2nc(C3CCCCN3)n(Cc3ccc(C(F)(F)F)cc3)c12)C1CCC1 (stereo partly shown) [Example 10.24]", "System tested": "HDM2 (Homo sapiens, UniProt Q00987)", "IC50 (nM)": 96.3}

[ask] Bench note: what IC50 did CCCN(c1nc2nc(C(=O)O)nc(N[C@H](C)C3CCC3)c2n1Cc1ccc(C(F)(F)F)cc1)[C@@H](C)c1cccc(F)c1 [Example 10.26] show?
[reply] 1.94

[ask] Bench note: what IC50 did C[C@@H](Nc1nc(C(=O)O)nc2nc(COc3ccccc3)n(Cc3ccc(C(F)(F)F)cc3)c12)C1CCC1 [Example 10.1] show?
[reply] 37.5
